System: NHEK
Assay: Proliferation assay: NHEK normal human keratinocytes
Assay type: cell-based
Conditions: 72 h culture, CyQuant proliferation assay
pIC50: −log10 of the molar value.
Some compounds, each annotated with its measured pIC50.

compound | pIC50
C=C1/C(=C\C=C2/CCC[C@]3(C)C(C4(C/C=C/C(O)(C(F)(F)F)C(F)(F)F)CC4)=CCC23)CC(O)C[C@@H]1F (stereo partly drawn) | 5.29
C[C@]12CCC/C(=C\C=C3\CC(O)C[C@H](O)C3)C1CC=C2C1(CC#CC(O)(C(F)(F)F)C(F)(F)F)CC1 (stereo partly drawn) | 6.00
C=C1/C(=C\C=C2/CCC[C@]3(C)C(C4(C/C=C\C(O)(C(F)(F)F)C(F)(F)F)CC4)=CCC23)CC(O)C[C@@H]1O (stereo partly drawn) | 5.44
C=C1/C(=C\C=C2/CCC[C@]3(C)C(C4(CC#CC(O)(C(F)(F)F)C(F)(F)F)CC4)=CCC23)CC(O)C[C@@H]1O (stereo partly drawn) | 5.70
C=C1/C(=C\C=C2/CCC[C@]3(C)C(C4(C/C=C/C(O)(C(F)(F)F)C(F)(F)F)CC4)=CCC23)CC(O)C[C@@H]1O (stereo partly drawn) | 5.24
CC(C)(O)CCCC1(C2=CCC3/C(=C/C=C4/CC(O)C[C@H](O)C4)CCC[C@]23C)CC1 (stereo partly drawn) | 5.21
